system: MOLT-4 leukemia; assay: NCI tumour cell line growth inhibition, 48 h
Give measured TGI for each item. Keep answers brief.

Reported TGI ( Cc1cn(C2CC(N)C(C(=O)O)O2)c(=O)[nH]c1=O (stereo not drawn) ) = > 100 µM

Record summary for COc1ccc(-c2csc(-c3cc(Cl)cc(Cl)c3Cl)n2)cc1 : reported TGI = > 100 µM

Lookup result for Cc1ccc(O)c(C(=O)CCCC(=O)c2cc(C)ccc2O)c1 ; measured TGI: > 100 µM

###

tested on: HOP-92 NSCLC; experiment: NCI tumour cell line growth inhibition, 48 h
Readout Label: TGI

// compound COc1cc2cc(C(=O)N3CC(CCl)c4ccccc43)[nH]c2c(OC)c1OC (stereo unspecified) , assay HOP-92 NSCLC, TGI value: > 100 µM

HOP-92 NSCLC assay, compound CN(C)c1ccc(/C=N\N2C(=O)c3ccccc3C2=O)cc1 , recorded TGI = > 100 µM

Bench note, HOP-92 NSCLC: entry CC#CCCN(CC#N)Cc1ccccc1 , its TGI = > 100 µM

Field TGI (system: HOP-92 NSCLC) for entry O=C1/C(=C/c2ccco2)N=C(c2ccccc2)N1c1cc2cc(Sc3ccccc3)ccc2[nH]1 = > 25 µM

HOP-92 NSCLC TGI of O=C1c2c(O)cc(O)cc2OC(c2ccc(O)cc2O)C1O (stereo unspecified) is > 100 µM

Reading of TGI for CC1(C)CC(=O)c2c(nc(SSc3nc4c(c(-c5ccccc5)c3C#N)C(=O)CC(C)(C)C4)c(C#N)c2-c2ccccc2)C1 with HOP-92 NSCLC: > 10 µM

Record for CC(=O)OC1CC[C@]2(C)C3CC[C@@]4(C)C(CCC4[C@H](C)CCCC(C)C)[C@@H]3CCC2(Br)C1 (stereo partly specified) under target or system HOP-92 NSCLC: TGI reported as > 50 µM

Let me check: Cc1cc(C)c(S(=O)(=O)ONC(=O)OC(C)(C)C)c(C)c1 , system HOP-92 NSCLC, measured TGI is > 100 µM

Bench note, HOP-92 NSCLC: COC(=O)C(Cc1nc2ccc(Cl)cc2[nH]c1=O)/C(=N/NC(N)=O)C(=O)Nc1ccc(Cl)cc1 (stereo unspecified) , TGI reads > 100 µM

Response field TGI (HOP-92 NSCLC) for item Cc1ccc(S(=O)(=O)Cc2nc(-c3ccc(C(=O)NCc4cccnc4)cc3)oc2C)cc1 : > 100 µM

For the compound O=C(O)Cn1c(=O)[nH]c(=O)c2c1ncn2Cc1ccccc1 , the measured TGI on HOP-92 NSCLC was > 100 µM

###

system: OVCAR-5 ovarian; experiment: NCI tumour cell line growth inhibition, 48 h
Please go through the items and note down their TGI.

CCOC(=O)c1cnc(-n2[nH]c3c(c2=O)CCCC3)[nH]c1=O yielded TGI of > 100 µM

Noted for COc1ccc(/C(=N/NC(N)=O)C(c2ccc(OC)cc2)C2C(=O)Oc3ccccc32)cc1 (stereo not drawn) : its TGI reads > 100 µM

Recorded TGI (molecule CCOC(=O)/C=C(/C(=O)OCC)n1ccc(=O)n(/C(=C/C(=O)OCC)C(=O)OCC)c1=O ): 31.2 µM

###

test system: CAKI-1 renal; experiment: NCI tumour cell line growth inhibition, 48 h
Readout Label: TGI

Let me check: O=C1NC(N2CCCC(CO)C2)=N/C1=C\c1ccc(Cl)cc1 (stereo not given) , system CAKI-1 renal, measured TGI is > 100 µM

With CAKI-1 renal as the test system, O=C(c1ccccc1)c1nc2ccc(C(F)(F)F)cc2[n+]([O-])c1C(F)(F)F showed TGI of > 100 µM

The molecule CC(=O)NNc1nc(C)c(C(/C=C/c2ccc(Cl)cc2)=N/NC(=O)C[N+](C)(C)C)s1 on CAKI-1 renal: TGI was > 100 µM

Cc1cc(C)nc(SC2=C(Nc3cccc(Cl)c3C)C(=O)N(Cc3ccccc3)C2=O)n1 tested on CAKI-1 renal gave TGI: > 160 µM

Note to self: TGI of O=c1cc(-c2ccc(Cl)cc2)oc2cc(OCCCOc3ccc4c(=O)cc(-c5ccc(Cl)cc5)oc4c3)ccc12 with CAKI-1 renal was > 100 µM

###

tested on: KM12 colon; assay: NCI tumour cell line growth inhibition, 48 h
Readout Label: TGI

TGI reading for COC(=O)C(Cc1nc2ccc(Cl)cc2[nH]c1=O)/C(=N/NC(N)=O)C(=O)Nc1ccc(Cl)cc1 (centres undefined) : > 100 µM

For reference, reported TGI for COC(=O)[C@@]12OC[C@]34C([C@@H](O)C1O)[C@@]1(C)CC(=O)C(OC(=O)/C=C(/c5ccccc5)C(F)(F)F)=C(C)C1C[C@H]3OC(=O)[C@H](O)[C@H]42 (some centres undefined) stands at > 50 µM

For reference, reported TGI for CC(=O)OC1CC2C(C)(C)C(=O)C=CC2(C)C2CCC3(C)C(c4ccoc4)OC(=O)C4OC43C12C (centres undefined) stands at 19.4 µM

Entry CN(C)c1ccc(/C=N\N2C(=O)c3ccccc3C2=O)cc1 — recorded TGI = > 100 µM

get_value(item= COc1cc2c(cc1OC)C(N)CC2=O (centres undefined) , readout=TGI) returns > 100 µM

For record NC(=O)NC(=O)c1cccc(NC(=O)CBr)c1 the listed TGI is 14.4 µM

// field: TGI; key: NC(=O)c1[nH]cnc1/N=N/SCC(N)C(=O)O (centres undefined) ; value = > 62.5 µM

Documented TGI of O=C1/C(=C/c2ccc(Cl)cc2)N=C(c2ccccc2)N1c1ccc(S(=O)(=O)Nc2nccs2)cc1 : > 100 µM

So for CCCCCCCCCCCCOC1C(CNC(=O)C2OC3OC(C)(C)OC3C2NC(=O)CN2CCCCCC2)OC2OC(C)(C)OC21 (centres undefined) , the logged TGI turned out to be 19.1 µM

###

Answer each item with its documented TGI.
system: 786-0 renal; test: NCI tumour cell line growth inhibition, 48 h

TGI reported for this compound O=C1CC(=O)N(CCc2ccccc2)S(=O)(=O)N1CCc1ccccc1 : 30.8 µM

Measured TGI, CCC[CH2][Sn]([CH2]CCC)([O]C(=O)C1CCC(=O)N1)[O]C(=O)C1CCC(=O)N1 (configuration not stated) : 0.409 µM

Kindly note the recorded TGI for CNC1C(O)C(OC2C(N)CC(N)C(OC3OC(C(C)O)C(O)C(O)C3N)C2O)OCC1(C)O (configuration not stated) , which is > 100 µM

// field: TGI; key: CCN1C(=O)N(c2ccccc2)C2NN=c3s/c(=C4\C(=O)N(C(C)C)c5ccccc54)c(=O)n3C21 (configuration not stated) ; value = 8.64 µM

So, O=C1NC(N2CCCC(CO)C2)=N/C1=C\c1ccc(Cl)cc1 (configuration not stated) ? Its TGI was > 100 µM

Note to self: TGI recorded for NC(Cc1ccccc1)(C(=O)O)C(=O)O was > 100 µM

Quick note, TGI for COC(=O)[C@@H]1C[C@@H]2c3ccccc3N(S(=O)(=O)c3ccccc3)[C@@H]2N1C(=O)OC landed at > 100 µM

Note to self: TGI recorded for C=CC[C@@]1(C)CCCCCCCCC[C@@](C)(CC=C)C1=O was > 100 µM

// recorded TGI for O=C(Oc1ccccc1Cl)c1ccccc1Nc1ccnc(C(F)(F)F)c1 : 2.39 µM

Field TGI (entry CC(=O)OC1CC2C(C)(C)C(=O)C=CC2(C)C2CCC3(C)C(c4ccoc4)OC(=O)C4OC43C12C (configuration not stated) ) reads 27.4 µM

For COc1ccc(C2SC(C)C(=O)N2c2nc(-c3nc(-c4ccc(Cl)cc4)cs3)cs2)cc1 (configuration not stated) the compound record lists TGI as > 100 µM

get_value(item= CC(=O)Nc1ccc(C(=O)NN2C(=O)C(Cl)C2c2ccccc2O)cc1 (configuration not stated) , readout=TGI) returns > 100 µM

TGI in this record for CCOC(=O)Nc1ccc(-c2nc(-c3cccc(OC)c3)c(-c3ccnc(Br)c3)[nH]2)cc1 : > 100 µM

TGI reading for Nc1nc(N)c2nc(CNc3ccc(C(=O)NC(CCCNC(=O)c4ccccc4C(=O)O)C(=O)O)cc3)cnc2n1 (configuration not stated) : > 100 µM

The recorded TGI for CN(C)c1ccc(/C=N\N2C(=O)c3ccccc3C2=O)cc1 is > 100 µM

Entry Cn1ncnc1CCc1ccccc1 — recorded TGI = > 100 µM

For N#CCCN(CCN(C(=O)Nc1ccccc1)c1ccccc1)C(=O)Nc1ccccc1 the compound record lists TGI as > 100 µM

###

system: HOP-62 NSCLC; assay: NCI tumour cell line growth inhibition, 48 h
So I've got a bunch of compounds here, and I need their GI50 values.

Quick note, GI50 for O=C(Oc1ccccc1Cl)c1ccccc1Nc1ccnc(C(F)(F)F)c1 landed at 2.69 µM

Recorded GI50 (compound Nc1nnc(Cn2c(-c3ccccc3)nc3ccc(Br)cc3c2=O)s1 ): 36.8 µM

Input Cc1nc(N)sc1C(=O)Nc1cc(C(=O)NCCCN(C)C)n(C)c1 . Output GI50: > 100 µM
